- Target of assay: LRH-1 (Homo sapiens, UniProt O00482)
- Construct: The transfected plasmids included full-length LRH-1 in a pCI vector; expressed in transfected cells; host or cells: HeLa
- Sequence (O00482 whole entry): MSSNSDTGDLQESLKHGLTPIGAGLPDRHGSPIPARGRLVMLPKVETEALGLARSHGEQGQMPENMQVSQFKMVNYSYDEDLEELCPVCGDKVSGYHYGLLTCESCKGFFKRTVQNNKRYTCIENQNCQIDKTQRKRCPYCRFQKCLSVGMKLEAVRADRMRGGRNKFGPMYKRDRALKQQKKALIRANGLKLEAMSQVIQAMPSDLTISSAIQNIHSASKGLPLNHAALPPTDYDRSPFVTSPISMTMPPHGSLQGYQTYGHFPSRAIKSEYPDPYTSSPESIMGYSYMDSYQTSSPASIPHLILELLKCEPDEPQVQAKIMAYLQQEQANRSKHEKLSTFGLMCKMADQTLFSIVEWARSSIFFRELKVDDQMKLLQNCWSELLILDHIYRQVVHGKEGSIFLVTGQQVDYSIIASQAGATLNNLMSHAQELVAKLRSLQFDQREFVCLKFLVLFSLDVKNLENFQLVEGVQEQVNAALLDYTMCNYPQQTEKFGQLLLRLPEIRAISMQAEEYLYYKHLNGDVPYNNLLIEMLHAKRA
- Experiment summary: Luciferase reporter assay (SHP-luc) in HeLa cells transfected with full-length LRH-1
- Assay type: cell-based
- Test conditions: HeLa cells, SHP-luc reporter, 24 hours, 0.03-30 μM
Quantity: EC50 (µM)

1: C=C(c1ccccc1)[C@@]12CC[C@@H](O)[C@@H]1CC(CCCCCCCO)=C2c1ccccc1 (relative stereo)
2: C=C(c1ccccc1)[C@@]12CC[C@@H](O)C1CC(CCCCCC)=C2c1cc(N)ccc1F (mixture of isomers) [Compound 16g]
Hi, I'm comparing 1 with 2 and wondering which one has the bigger number for EC50. Any idea? To answer, give the label that identifies your chosen option.
2
(2: 24 µM, 1: 0.2 µM)
